# subject_of_test: 6×His human TRIM21 PRYSPRY labelled with Alexa Fluor 488 (human) (UniProt P19474)
# experiment: fluorescence anisotropy; 5 nM Alexa Fluor 488-labelled human TRIM21 PRYSPRY, antibody titrated
reported_metric: Kd (nM)
Report only the number, with the unit nM understood.

>>> df
                                  substance  reported_metric  value_measured
0  AP422 NALALA (N297A, L234A, L235A; mouse-human chimeric, human IgG1 Fc region) (antibody)               Kd              29

Now take the following substance into account.
Q) Consider the substance AP422 NALALA T256P (mouse-human chimeric, human IgG1 Fc region) (antibody) and give its measured Kd.
A) 0.1
